Reference source: patent US12624044B2

Assay Target: SMARCA2 (Homo sapiens)
Sequence (P51531 whole entry): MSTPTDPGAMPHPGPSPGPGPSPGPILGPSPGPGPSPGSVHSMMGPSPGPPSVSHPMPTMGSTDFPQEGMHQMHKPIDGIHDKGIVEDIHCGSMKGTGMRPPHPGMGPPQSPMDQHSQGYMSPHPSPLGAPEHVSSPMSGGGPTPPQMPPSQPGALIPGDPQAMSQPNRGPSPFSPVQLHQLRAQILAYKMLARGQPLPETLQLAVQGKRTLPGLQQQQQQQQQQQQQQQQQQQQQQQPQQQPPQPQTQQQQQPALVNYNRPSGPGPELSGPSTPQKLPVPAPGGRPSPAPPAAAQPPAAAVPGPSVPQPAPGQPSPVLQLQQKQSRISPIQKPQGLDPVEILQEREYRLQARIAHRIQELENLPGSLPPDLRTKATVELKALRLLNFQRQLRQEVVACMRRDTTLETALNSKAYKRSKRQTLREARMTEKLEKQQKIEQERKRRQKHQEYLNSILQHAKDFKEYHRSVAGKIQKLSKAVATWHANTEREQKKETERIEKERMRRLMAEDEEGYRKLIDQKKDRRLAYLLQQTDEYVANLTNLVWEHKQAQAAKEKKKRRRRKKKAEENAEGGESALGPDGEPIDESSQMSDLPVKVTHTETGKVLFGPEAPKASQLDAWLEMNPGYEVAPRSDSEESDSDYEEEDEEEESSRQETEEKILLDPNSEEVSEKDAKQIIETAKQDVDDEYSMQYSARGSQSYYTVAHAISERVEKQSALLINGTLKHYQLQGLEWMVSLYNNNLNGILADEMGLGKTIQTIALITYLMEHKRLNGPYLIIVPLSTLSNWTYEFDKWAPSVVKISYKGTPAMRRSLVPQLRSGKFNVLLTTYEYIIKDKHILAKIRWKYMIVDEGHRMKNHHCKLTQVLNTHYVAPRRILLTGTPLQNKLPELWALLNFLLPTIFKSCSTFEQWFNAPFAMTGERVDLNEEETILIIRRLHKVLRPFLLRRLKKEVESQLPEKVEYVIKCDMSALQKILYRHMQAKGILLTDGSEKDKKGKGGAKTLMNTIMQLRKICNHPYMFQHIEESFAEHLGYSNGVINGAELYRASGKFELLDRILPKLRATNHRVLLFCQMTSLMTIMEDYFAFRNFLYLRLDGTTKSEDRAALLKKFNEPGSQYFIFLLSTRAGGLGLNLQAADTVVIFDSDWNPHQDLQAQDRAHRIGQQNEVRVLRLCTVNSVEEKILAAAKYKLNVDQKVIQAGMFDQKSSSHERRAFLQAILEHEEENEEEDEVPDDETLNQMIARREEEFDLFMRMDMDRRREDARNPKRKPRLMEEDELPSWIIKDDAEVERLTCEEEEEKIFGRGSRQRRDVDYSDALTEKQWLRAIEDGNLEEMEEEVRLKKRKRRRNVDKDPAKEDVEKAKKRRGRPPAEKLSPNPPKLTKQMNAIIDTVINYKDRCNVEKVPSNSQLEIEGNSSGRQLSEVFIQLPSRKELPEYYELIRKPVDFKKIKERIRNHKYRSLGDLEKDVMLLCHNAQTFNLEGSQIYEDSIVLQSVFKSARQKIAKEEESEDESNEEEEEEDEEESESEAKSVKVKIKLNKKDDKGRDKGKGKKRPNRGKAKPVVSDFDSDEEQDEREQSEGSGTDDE
Method Summary: MSD SMARCA2 degradation in A549 cell line
Type: cell-based
Details: A549 cells, 24 h, read-out: SMARCA2 MSD A549 degradation 24 h: Average external-Abs DC50
Measured Endpoint: DC50

Query: Entry under review: `Cc1ncsc1-c1ccc(CNC(=O)[C@@H]2C[C@@H](O)CN2C(=O)[C@@H](NC(=O)[C@H]2CC[C@@H](N3CCC(c4cnc(N5C6CCC5CN(c5cc(-c7ccccc7O)nnc5N)C6)nc4)CC3)CC2)C(C)(C)C)cc1` . Reported DC50?
Response: 0.1 to 0.5 µM

---

Assay Target: SMARCA4 (Homo sapiens, UniProt P51532)
Construct: SMARCA2 and SMARCA4 protein degradation in MV4-11 cells; endogenous in cells; host or cells: MV4-11
Sequence (P51532 whole entry): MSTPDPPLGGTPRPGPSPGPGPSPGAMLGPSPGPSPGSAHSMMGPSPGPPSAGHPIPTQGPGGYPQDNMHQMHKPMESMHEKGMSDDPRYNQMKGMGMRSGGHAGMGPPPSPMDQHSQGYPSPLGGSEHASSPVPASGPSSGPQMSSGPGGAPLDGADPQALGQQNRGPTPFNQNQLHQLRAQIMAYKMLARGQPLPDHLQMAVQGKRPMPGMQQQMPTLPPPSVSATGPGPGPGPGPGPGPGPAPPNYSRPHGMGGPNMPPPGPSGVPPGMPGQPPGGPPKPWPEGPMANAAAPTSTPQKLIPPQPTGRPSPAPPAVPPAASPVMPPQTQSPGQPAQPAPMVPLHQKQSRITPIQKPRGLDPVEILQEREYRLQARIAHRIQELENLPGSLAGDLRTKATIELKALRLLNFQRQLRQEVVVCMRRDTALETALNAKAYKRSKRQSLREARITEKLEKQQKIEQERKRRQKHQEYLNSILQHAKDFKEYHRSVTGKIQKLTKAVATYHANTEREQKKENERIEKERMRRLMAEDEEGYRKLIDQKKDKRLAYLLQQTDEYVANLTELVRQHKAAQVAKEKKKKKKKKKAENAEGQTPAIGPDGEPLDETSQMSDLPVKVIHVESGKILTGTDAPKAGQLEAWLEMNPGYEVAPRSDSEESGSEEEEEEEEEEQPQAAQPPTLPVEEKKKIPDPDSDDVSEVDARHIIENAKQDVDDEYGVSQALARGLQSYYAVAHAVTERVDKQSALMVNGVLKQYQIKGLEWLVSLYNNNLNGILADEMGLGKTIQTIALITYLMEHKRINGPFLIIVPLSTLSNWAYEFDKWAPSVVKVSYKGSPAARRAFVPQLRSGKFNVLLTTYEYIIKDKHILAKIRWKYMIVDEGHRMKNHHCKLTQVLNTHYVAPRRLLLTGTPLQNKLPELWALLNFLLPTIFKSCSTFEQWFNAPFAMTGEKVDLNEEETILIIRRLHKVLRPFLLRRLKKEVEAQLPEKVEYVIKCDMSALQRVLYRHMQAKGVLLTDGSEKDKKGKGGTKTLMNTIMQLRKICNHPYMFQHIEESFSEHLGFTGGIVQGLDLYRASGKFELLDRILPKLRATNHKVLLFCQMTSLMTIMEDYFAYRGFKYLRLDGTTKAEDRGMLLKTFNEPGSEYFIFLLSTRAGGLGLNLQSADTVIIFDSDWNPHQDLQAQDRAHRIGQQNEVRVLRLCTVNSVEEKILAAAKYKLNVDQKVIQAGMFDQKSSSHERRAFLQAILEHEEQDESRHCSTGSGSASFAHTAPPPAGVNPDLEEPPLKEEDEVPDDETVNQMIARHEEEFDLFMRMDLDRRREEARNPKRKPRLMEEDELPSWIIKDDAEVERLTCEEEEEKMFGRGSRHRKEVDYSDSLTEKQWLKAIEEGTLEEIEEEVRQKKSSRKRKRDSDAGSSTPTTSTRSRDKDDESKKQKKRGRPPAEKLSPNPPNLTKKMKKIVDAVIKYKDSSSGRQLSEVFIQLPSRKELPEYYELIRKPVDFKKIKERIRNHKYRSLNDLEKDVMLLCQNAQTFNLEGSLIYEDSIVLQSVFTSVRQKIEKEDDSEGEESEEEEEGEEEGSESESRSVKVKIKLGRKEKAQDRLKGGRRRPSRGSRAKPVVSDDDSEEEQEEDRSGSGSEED
Method Summary: SMARCA4 Western blot MV4-11 degradation
Assay type: cell-based
Details: MV4-11 cells
Measured Endpoint: SMARCA4 WB MV411 degradation 24 h: Average Dmax %

Compound	Value
Cc1ncsc1-c1ccc(CNC(=O)[C@@H]2C[C@@H](O)CN2C(=O)[C@@H](NC(=O)[C@H]2CC3(C2)C[C@H](N2CCC(n4cc(-c5cc(-c6ccccc6O)nnc5N)cn4)CC2)C3)C(C)(C)C)cc1 (some centres unmarked) [I-390]	D (D (<50% degradation))
Cc1ncsc1-c1ccc(CNC(=O)[C@@H]2C[C@@H](O)CN2C(=O)[C@@H](NC(=O)[C@H]2C[C@]3(C2)C[C@H](c2cnc(N4C5CCC4CN(c4cc(-c6ccccc6O)nnc4N)C5)nc2)C3)C(C)(C)C)c(C(F)(F)F)c1 (some centres unmarked) [I-420]	D (D (<50% degradation))
Cc1ncsc1-c1ccc(CNC(=O)[C@@H]2C[C@@H](O)CN2C(=O)[C@@H](NC(=O)[C@H]2CC3(C2)C[C@H](N2CCC(c4cnc(N5C6CCC5CN(c5cc(-c7ccccc7O)nnc5N)C6)nc4)CC2)C3)C(C)(C)C)cc1 (some centres unmarked) [I-424]	D (D (<50% degradation))
